- Test Target: STAT6 protein (Homo sapiens, UniProt P42226)
- Sequence (P42226 whole entry): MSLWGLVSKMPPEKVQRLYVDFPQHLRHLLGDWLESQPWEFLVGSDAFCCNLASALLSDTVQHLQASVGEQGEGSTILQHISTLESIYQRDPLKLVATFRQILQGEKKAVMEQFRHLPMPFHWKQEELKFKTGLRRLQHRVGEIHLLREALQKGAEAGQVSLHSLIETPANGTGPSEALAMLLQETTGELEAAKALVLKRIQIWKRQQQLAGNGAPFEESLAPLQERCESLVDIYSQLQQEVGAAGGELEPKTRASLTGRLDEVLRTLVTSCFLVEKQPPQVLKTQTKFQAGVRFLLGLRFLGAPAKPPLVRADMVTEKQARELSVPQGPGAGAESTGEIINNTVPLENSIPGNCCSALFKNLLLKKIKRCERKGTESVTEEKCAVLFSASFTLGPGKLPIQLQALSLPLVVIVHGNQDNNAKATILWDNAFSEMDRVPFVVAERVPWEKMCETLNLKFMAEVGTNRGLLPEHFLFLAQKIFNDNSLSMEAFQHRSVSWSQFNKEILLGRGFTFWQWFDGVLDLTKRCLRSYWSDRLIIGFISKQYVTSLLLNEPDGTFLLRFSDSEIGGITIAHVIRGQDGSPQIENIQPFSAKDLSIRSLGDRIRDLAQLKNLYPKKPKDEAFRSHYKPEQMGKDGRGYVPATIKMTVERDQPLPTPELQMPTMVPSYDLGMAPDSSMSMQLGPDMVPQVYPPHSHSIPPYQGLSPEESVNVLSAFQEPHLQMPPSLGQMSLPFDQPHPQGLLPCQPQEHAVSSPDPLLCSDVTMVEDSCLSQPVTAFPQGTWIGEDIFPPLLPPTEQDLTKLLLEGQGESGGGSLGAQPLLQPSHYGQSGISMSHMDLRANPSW
- Procedure Summary: Fluorescence polarization (FP) binding assay, STAT6
- Experimental Conditions: FP competition, 5 nM fluorescein-labeled tracer, 200 nM protein, PBS pH7.4; read-out: Binding STAT6
pKi: −log10 of the molar value.
Readout Label: pKi

| Compound | pKi |
| --- | --- |
| C#CC[C@H](NC(=O)c1cc2cc(C(F)(F)P(=O)(O)O)ccc2s1)C(=O)N1CCC[C@H]1C(=O)N1CCO[C@@H](c2ccccc2)C1 | 5.00 to 6.00 |

Batch request: pKi per item, same order as input.
1. Cc1ccccc1C1CCCN(C(=O)[C@@H]2CCCN2C(=O)[C@@H](NC(=O)c2cc3cc(C(F)(F)P(=O)(O)O)ccc3s2)C(C)(C)C)C1 (stereo partly drawn)
2. O=C(/C=C/c1ccc(C(F)(F)P(=O)(O)O)cc1)N[C@@H](CC1CCCCC1)C(=O)N1CCC[C@H]1C(=O)N1CCc2ccccc2C1
3. CC(C)(C)[C@H](NC(=O)c1cc2cc(C(F)(F)P(=O)(O)O)ccc2s1)C(=O)N1CCC[C@H]1C(=O)N1CCC(C(=O)O)C(c2ccccc2)C1 (stereo partly drawn)
4. CC(C)(C)[C@H](NC(=O)c1cc2cc(C(F)(F)P(=O)(O)O)ccc2s1)C(=O)N1CCC[C@H]1C(=O)Nc1ncc(Cc2ccccc2)s1
5. CC(=O)N1CCN(C(=O)[C@@H](NC(=O)c2cc3cc(C(F)(F)P(=O)(O)O)ccc3s2)C(C)(C)C)[C@H](C(=O)N2CC[C@@H](c3ccccc3)C2)C1

1: 5.00 to 6.00; 2: < 5.00; 3: 5.00 to 6.00; 4: 6.00 to 7.00; 5: 5.00 to 6.00

====

pKi: −log10 of the molar value.
Measurement record for STAT5A (Homo sapiens); quantity recorded: pKi.

Solved entries:
| Chemical Smiles | Result |
| --- | --- |
| CCCCC(=O)N1C[C@H]2CCN(C(=O)[C@@H]3CCCN3C(=O)[C@@H](NC(=O)c3cc4cc(C(F)(F)P(=O)(O)O)ccc4s3)C(C)(C)C)[C@H]2C1 | < 5.00 |
| CC(C)(C)[C@H](NC(=O)c1cc2cc(C(F)(F)P(=O)(O)O)ccc2s1)C(=O)N1CCC[C@H]1C(=O)N(CCC(=O)O)c1ccc(Br)cc1 | 6.00 to 7.00 |

Consider now this further molecule.
So what's the measured pKi for this one? CN(C)C(=O)CCN(C(=O)[C@@H]1CCCN1C(=O)[C@@H](NC(=O)c1cc2cc(C(F)(F)P(=O)(O)O)ccc2s1)c1ccccc1)c1ccc(-c2nccs2)cc1
5.00 to 6.00

====

- Test Target: STAT6 protein (Homo sapiens)
- Procedure Summary: Fluorescence polarization (FP) binding assay, STAT6
- Experimental Conditions: FP competition, 5 nM fluorescein-labeled tracer, 200 nM protein, PBS pH7.4; read-out: Binding STAT6
Readout Label: Ki

| Molecule | Ki |
| --- | --- |
| CC(=O)N1CC[C@H]2CC[C@@H](C(=O)N3CCOC(c4cc(F)c(Cl)cc4Cl)C3)N2C(=O)[C@@H](NC(=O)c2cc3cc(C(F)(F)P(=O)(O)O)ccc3s2)C1 (some centres unmarked) | 1000 to 10000 nM |
| CCCCC(=O)N1C[C@H]2CCN(C(=O)[C@@H]3CCCN3C(=O)[C@@H](NC(=O)c3cc4cc(C(F)(F)P(=O)(O)O)ccc4s3)C(C)(C)C)[C@H]2C1 | > 10000 nM |
| CC(C)(C)[C@H](NC(=O)c1cc2cc(C(F)(F)P(=O)(O)O)ccc2s1)C(=O)N1CCC[C@H]1C(=O)N1CCCC12CCCCC2 | 1000 to 10000 nM |
| CC(=O)NC(C)(C)[C@H](NC(=O)c1cc2cc(C(F)(F)P(=O)(O)O)ccc2s1)C(=O)N1CCC[C@H]1C(=O)N1CCO[C@H](c2ccccc2)C1 | 100 to 1000 nM |
| CC(=O)N1CC[C@H]2CC[C@@H](C(=O)N3CCC[C@@H](c4ccccc4)C3)N2C(=O)[C@@H](NC(=O)c2cc3cc(C(F)(F)P(=O)(O)O)ccc3s2)C1 | 1000 to 10000 nM |
| CC(=O)N1CC[C@H]2CC[C@@H](C(=O)N3Cc4cccc(Cl)c4C3)N2C(=O)[C@@H](NC(=O)c2cc3cc(C(F)(F)P(=O)(O)O)ccc3[nH]2)C1 | > 10000 nM |
| CC(=O)N1CC[C@H]2CC[C@@H](C(=O)N(c3ccccc3)c3ccccc3)N2C(=O)[C@@H](NC(=O)c2cc3cc(C(F)(F)P(=O)(O)O)ccc3[nH]2)C1 | 1000 to 10000 nM |
| O=C(N[C@@H](Cc1cccc([N+](=O)[O-])c1)C(=O)N1CCC[C@H]1C(=O)N1CCO[C@H](c2ccccc2)C1)c1cc2cc(C(F)(F)P(=O)(O)O)ccc2s1 | < 100 nM |

Batch request: Ki per item, same order as input.
1. CC1(c2ccc(Cl)cc2)CN(C(=O)[C@@H]2CCCN2C(=O)[C@@H](NC(=O)c2cc3cc(C(F)(F)P(=O)(O)O)ccc3s2)C(C)(C)C)CCO1 (some centres unmarked)
2. CC(=O)N1CC[C@H]2CC[C@@H](C(=O)N3CCc4cc(F)ccc4C3)N2C(=O)[C@@H](NC(=O)c2cc3cc(C(F)(F)P(=O)(O)O)ccc3[nH]2)C1
3. CC(C)(C)[C@H](NC(=O)c1cc2cc(C(F)(F)P(=O)(O)O)ccc2s1)C(=O)N1CCC[C@H]1C(=O)N1CCSC(c2ccccc2)C1 (some centres unmarked)

1: 1000 to 10000 nM; 2: > 10000 nM; 3: 100 to 1000 nM
